Kindly state IC50 for each of the entries shown.
- Tested on: 349418-098-R-PDC complex spheroid viability;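 also: spheroids exposed to compound for seven days before viability readout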
- assayProtocol: Anticancer human tumor 349418-098-R-PDC patient-derived lung adenocarcinoma cell line growth inhibition [RAS]
- particulars: curve of compound

See these solved cases before continuing.
| compound | IC50 |
| --- | --- |
| C=CC(=O)Nc1cc(Nc2nccc(-c3cn(C)c4ccccc34)n2)c(OC)cc1N(C)CCN(C)C | > 1 µM |
| Cc1nc(N2CCC3(CC2)COC(C)C3N)c(CO)nc1Sc1ccnc(N)c1Cl (stereo not given) | > 10 µM |
| CC(C)NCC(C(=O)N1CCN(c2ncnc3c2C(C)CC3O)CC1)c1ccc(Cl)cc1 (stereo not given) | 476 nM [middle of 4 runs] |
| CCC(CC)c1cc(NC2CCC(N)C2)n2nccc2n1 (stereo not given) | 778 nM [middle of 4 runs] |

Continue with the compound presented below.
Tell me reported IC50 for CCc1c2c(nc3ccc(O)cc13)-c1cc3c(c(=O)n1C2)COC(=O)[C@]3(O)CC , tested with 349418-098-R-PDC complex spheroid viability.
2.32 nM [middle of 4 runs]
